Test system: HepG2
Assay: Cytotoxicity against human Hep G2 after 48 hrs by MTT assay
Type: functional
measure: Activity

C[C@@H]1C[C@H](O)[C@@]2(OC1=O)O[C@H]1C[C@H]3[C@@H]4CC[C@H]5C[C@@H](O[C@@H]6O[C@H](CO)[C@H](O[C@@H]7O[C@H](CO)[C@@H](O)[C@H](O[C@@H]8OC[C@@H](O)[C@H](O)[C@H]8O)[C@H]7O[C@@H]7OC[C@H](O)[C@H](O)[C@H]7O)[C@H](O)[C@H]6O[C@@H]6O[C@@H](C)[C@H](O)[C@@H](O)[C@H]6O)CC[C@]5(C)[C@H]4CC[C@]3(C)[C@H]1[C@@H]2C; Not toxic
C[C@@H]1C[C@H](O)[C@@]2(OC1=O)O[C@H]1[C@H](O)[C@H]3[C@@H]4CC[C@H]5C[C@@H](O[C@@H]6O[C@H](CO)[C@H](O[C@@H]7O[C@H](CO)[C@@H](O)[C@H](O[C@@H]8OC[C@@H](O)[C@H](O)[C@H]8O)[C@H]7O[C@@H]7OC[C@H](O)[C@H](O)[C@H]7O)[C@H](O)[C@H]6O[C@@H]6O[C@@H](C)[C@H](O)[C@@H](O)[C@H]6O)CC[C@]5(C)[C@H]4CC[C@]3(C)[C@H]1[C@@H]2C; Not toxic
